# Tested on: breast cancer MCF-7 cells
# ASSAY_REMARKS: Antiproliferation assay (MTT), MCF-7
# Type: cell-based
# TEST_CONTEXT: Homo sapiens, MCF7, 360 h, 15-day treatment, read-out: MCF-7 EC50 (antiproliferative)
In this section we review reported EC50 values for a set of molecules.
READOUT_KIND: EC50 (µM)

> print(dat)
                                   molecule            subject.of.test  value.modifier  observed.result
1  CN1CCN(C(=O)CNC2CC2c2ccc(OCc3ccccc3)cc2)CC1 (stereo not drawn)  breast cancer MCF-7 cells               =              1.6
2  NC1CC1c1ccc(-c2ccc(F)nc2)cc1 (stereo not drawn)  breast cancer MCF-7 cells               >               50
3  CN1CCN(C(=O)CNC2CC2c2ccc(Br)cc2)CC1 (stereo not drawn)  breast cancer MCF-7 cells               =             13.5

Data provenance: paper PMC4789278
